Measured inhibition values are reported for all entries that follow.
test target: 3-keto-steroid reductase/17-beta-hydroxysteroid dehydrogenase 7 (Homo sapiens)
assay conditions: HEK293, at 3 µM
Description: Inhibition of human 17beta-HSD7 expressed in HEK293 cells assessed as inhibition of reduction of [14C]estrone into [14C]estradiol at 3 uM after 7 hrs
readout label: inhibition

1. CN1C(=S)CC[C@]2(C)[C@H]3CC[C@@]4(C)[C@@H](CC[C@@]45CCCC(=S)O5)[C@@H]3CC[C@@H]12: 36.5%
2. CN1C(=O)CC[C@]2(C)[C@H]3CC[C@]4(C)[C@@H](N(C(=O)c5ccccc5)c5ccccc5)CC[C@H]4[C@@H]3CC[C@@H]12: 64.1%
3. C[C@]12CC[C@@H]3c4ccc(O)cc4CC[C@H]3[C@@H]1CC[C@H]2O: 0%
4. C[C@@]12C=CC[C@H]1[C@@H]1CCc3cc(O)ccc3[C@H]1CC2: 5.8%
5. COc1cc2c(cc1O)CC[C@@H]1[C@@H]2CC[C@]2(C)C(=O)CC[C@@H]12: 13.4%

---

Measured inhibition values are reported for all entries that follow.
test target: 3-keto-steroid reductase/17-beta-hydroxysteroid dehydrogenase 7 (Homo sapiens) (UniProt P56937)
Sequence (whole entry): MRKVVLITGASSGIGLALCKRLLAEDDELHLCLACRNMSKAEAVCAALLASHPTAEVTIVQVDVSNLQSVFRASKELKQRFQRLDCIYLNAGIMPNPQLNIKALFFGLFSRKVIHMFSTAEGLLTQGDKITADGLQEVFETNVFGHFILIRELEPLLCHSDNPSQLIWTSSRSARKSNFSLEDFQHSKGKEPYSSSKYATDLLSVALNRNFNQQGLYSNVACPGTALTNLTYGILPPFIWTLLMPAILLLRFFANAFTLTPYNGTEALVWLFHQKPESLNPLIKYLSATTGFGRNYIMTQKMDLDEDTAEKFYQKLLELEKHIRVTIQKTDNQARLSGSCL
assay conditions: HEK293, at 3 µM
readout label: inhibition (%)

1. C[C@]12CCC(=O)C(O)=C1CC[C@@H]1[C@@H]2CC[C@]2(C)C(=O)CC[C@@H]12: 7.1
2. C[C@]12CCC(=O)C[C@@H]1CC[C@@H]1[C@@H]2CC[C@@]2(C)[C@H]1CC[C@]2(O)C(=O)CO: 13.4
3. COC(=O)[C@H]1CC[C@H]2[C@@H]3CC=C4C=C(Cl)CC[C@]4(C)[C@H]3CC[C@]12C: 16.2
4. C[C@]12CC[C@@]3(C[C@H]1CC[C@@H]1[C@@H]2CC[C@]2(C)C(=O)CC[C@@H]12)CN(CC(CN1CCOCC1)OC(=O)CCC1CCCC1)C(=O)O3 (some centres not stated): 8.7
5. COC(=O)c1ccc2c(c1)CC[C@@H]1[C@@H]2CC[C@@]2(C)[C@H]1CC[C@@]21CCC(C)(C)C(=O)O1: 49
6. CCC[C@]1(O)CC[C@H]2[C@@H]3CC[C@H]4N(C)C(=O)CC[C@]4(C)[C@H]3CC[C@@]21C: 98.5
7. CN(C)C(=O)CCCCCCCCCCC1Cc2cc(O)ccc2[C@H]2CC[C@]3(C)[C@@H](O)[C@H](Cl)C[C@H]3[C@H]12 (some centres not stated): 18.5

---

Measured inhibition values are reported for all entries that follow.
test target: 3-keto-steroid reductase/17-beta-hydroxysteroid dehydrogenase 7 (Homo sapiens) (UniProt P56937)
Sequence (whole entry): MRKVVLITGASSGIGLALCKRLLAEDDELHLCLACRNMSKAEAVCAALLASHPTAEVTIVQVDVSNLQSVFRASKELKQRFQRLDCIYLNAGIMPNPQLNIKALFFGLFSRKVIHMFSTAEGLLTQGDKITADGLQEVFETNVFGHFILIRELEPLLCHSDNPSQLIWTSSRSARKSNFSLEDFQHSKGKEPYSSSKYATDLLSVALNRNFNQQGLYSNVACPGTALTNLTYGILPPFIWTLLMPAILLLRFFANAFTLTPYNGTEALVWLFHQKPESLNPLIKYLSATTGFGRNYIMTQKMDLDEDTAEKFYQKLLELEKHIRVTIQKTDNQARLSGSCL
assay conditions: HEK293, at 0.3 µM
Description: Inhibition of human 17beta-HSD7 expressed in HEK293 cells assessed as inhibition of reduction of [14C]estrone into [14C]estradiol at 0.3 uM after 7 hrs
readout label: inhibition (%)

1) CC1(C)CC[C@@]2(CC[C@H]3[C@@H]4CCc5cc(O)c(I)cc5[C@H]4CC[C@@]32C)OC1=O: 10
2) CC1CC[C@@]2(CC[C@H]3[C@@H]4CCc5cc(O)ccc5[C@H]4CC[C@@]32C)OC1=O (some centres not stated): 14.4
3) CC1(C)CC[C@@]2(CC[C@H]3[C@@H]4CC[C@H]5NC(=O)C=C[C@]5(C)[C@H]4CC[C@@]32C)OC1=O: 5
4) CCCN(CC1C2CC3CC(C2)CC1C3)C[C@@]1(O)CC[C@@]2(C)[C@@H](CC[C@@H]3[C@@H]2CC[C@]2(C)C(=O)CC[C@@H]32)C1 (some centres not stated): 29
5) CCCCCN(C(=O)c1ccc(Br)cc1)[C@H]1CC[C@H]2[C@@H]3CC[C@H]4N(C)C(=O)CC[C@]4(C)[C@H]3CC[C@]12C: 63
6) CCCCCCCN(C=O)[C@H]1CC[C@H]2[C@@H]3CC[C@H]4N(C)C(=O)CC[C@]4(C)[C@H]3CC[C@]12C: 94
7) CCCCCCCCCCN(C(=O)c1ccc(F)cc1F)[C@H]1CC[C@H]2[C@@H]3CC[C@H]4N(C)C(=O)CC[C@]4(C)[C@H]3CC[C@]12C: 80
